system.under.test: Phosphatidylinositol 4,5-bisphosphate 3-kinase catalytic subunit beta isoform (Homo sapiens)
Sequence (P42338 whole entry, canonical isoform): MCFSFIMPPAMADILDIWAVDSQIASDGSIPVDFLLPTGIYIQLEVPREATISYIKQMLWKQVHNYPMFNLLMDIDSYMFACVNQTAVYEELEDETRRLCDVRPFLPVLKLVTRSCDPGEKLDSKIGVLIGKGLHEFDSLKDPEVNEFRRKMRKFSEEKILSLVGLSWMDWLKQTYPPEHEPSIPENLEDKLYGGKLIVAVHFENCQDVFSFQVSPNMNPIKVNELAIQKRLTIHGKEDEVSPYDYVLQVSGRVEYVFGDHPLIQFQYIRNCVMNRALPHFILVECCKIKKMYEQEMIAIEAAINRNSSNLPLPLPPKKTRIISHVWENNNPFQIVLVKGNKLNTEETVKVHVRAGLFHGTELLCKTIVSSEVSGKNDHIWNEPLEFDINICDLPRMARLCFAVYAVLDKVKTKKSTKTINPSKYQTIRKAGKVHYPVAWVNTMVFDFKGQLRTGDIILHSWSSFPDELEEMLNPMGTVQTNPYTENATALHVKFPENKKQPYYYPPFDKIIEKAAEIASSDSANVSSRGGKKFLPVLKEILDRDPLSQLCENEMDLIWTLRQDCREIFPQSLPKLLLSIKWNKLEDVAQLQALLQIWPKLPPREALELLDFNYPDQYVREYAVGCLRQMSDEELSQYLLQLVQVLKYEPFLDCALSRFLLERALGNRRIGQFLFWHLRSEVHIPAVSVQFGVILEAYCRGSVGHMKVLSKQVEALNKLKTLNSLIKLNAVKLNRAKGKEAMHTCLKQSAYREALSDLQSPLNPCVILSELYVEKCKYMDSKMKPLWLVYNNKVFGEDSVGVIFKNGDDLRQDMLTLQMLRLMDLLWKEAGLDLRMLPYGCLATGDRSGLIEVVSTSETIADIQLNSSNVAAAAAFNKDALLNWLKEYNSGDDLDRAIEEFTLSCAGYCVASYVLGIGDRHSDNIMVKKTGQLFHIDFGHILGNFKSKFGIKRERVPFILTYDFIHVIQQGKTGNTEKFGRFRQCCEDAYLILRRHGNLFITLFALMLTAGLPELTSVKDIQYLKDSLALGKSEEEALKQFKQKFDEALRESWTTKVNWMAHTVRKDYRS
assay.name: Inhibition of human recombinant His6-tagged PI3K p110beta expressed in baculovirus infected cells using DiC8-PI(4,5)P2 as substrate after 20 mins by AlphaScreen assay
pIC50: −log10 of the molar value.
measured.attribute: pIC50

Example cases with answers are listed next.
C[C@H]1CN(c2cc(N(CCO)Cc3cccc4ccccc34)[nH]c(=O)n2)CCO1 ... 7.42
COC1CN(c2cc(=O)[nH]c(NCc3cccc4ccccc34)n2)C1 ... 4.62

(a) O=c1nc(N2CCOCC2)cc(N(Cc2cccc3ccccc23)CC(O)C(F)(F)F)[nH]1 (centres undefined)
(b) O=c1cc(-c2cn[nH]c2)nc(NCc2cccc3ccccc23)[nH]1
(c) CN(Cc1cccc2ccccc12)c1cc(N2CCOCC2)nc(=O)[nH]1
(d) O=c1nc(N2CCOCC2)cc(N(CCCO)Cc2cccc3ccccc23)[nH]1
Inquiry: Order the records, beginning with the lowest pIC50 and ending with the highest. Submit the labels in the order that the ranking request calls for.
Reply text: b, a, c, d
(b: 4.96, a: 6.01, c: 6.22, d: 7.00)

(I) CC(C)(CO)CN(Cc1cccc2ccccc12)c1cc(N2CCOCC2)nc(=O)[nH]1
(II) Cc1cc(-c2cc(=O)[nH]c(NCc3cccc4ccccc34)n2)ccn1
(III) CC1CN(c2cc(=O)[nH]c(NCc3cccc4ccccc34)n2)CCO1 (centres undefined)
(IV) CCC(O)CN(Cc1cccc2ccccc12)c1cc(N2CCOCC2)nc(=O)[nH]1 (centres undefined)
(V) O=c1nc(N2CCOCC2)cc(N(CCO)Cc2cccc3ccccc23)[nH]1
Inquiry: Parameters: sort_field (pIC50), sort_dir (desc). Submit the labels in the order that the ranking request calls for.
Reply text: II, III, V, IV, I

(1) O=c1nc(N2CCOCC2)cc(N(CCCCO)Cc2cccc3ccccc23)[nH]1
(2) CN(C)CCCN(Cc1cccc2ccccc12)c1cc(N2CCOCC2)nc(=O)[nH]1
Inquiry: Lab note: check whether 1 or 2 shows the higher recorded pIC50. Lab note: record the label of whichever item you select.
Reply text: 1
(1: 6.70, 2: 5.92)

(P) C[C@@H]1CN(c2cc(N(CCO)Cc3cccc4ccccc34)[nH]c(=O)n2)CCO1
(Q) CN(C)CCN(Cc1cccc2ccccc12)c1cc(N2CCOCC2)nc(=O)[nH]1
Inquiry: Hi there, can you help? I need to know whether P or Q has lower measured pIC50. Lab note: record the label of whichever item you select.
Reply text: Q
(Q: 5.51, P: 6.00)

(P) O=c1nc(N2CCOCC2)cc(N(Cc2cccc3ccccc23)C2CC2)[nH]1
(Q) O=c1cc(N2CCC(O)CC2)nc(NCc2cccc3ccccc23)[nH]1
(R) CCN(Cc1cccc2ccccc12)c1cc(N2CCOCC2)nc(=O)[nH]1
Inquiry: Parameters: sort_field (pIC50), sort_dir (desc). Submit the labels in the order that the ranking request calls for.
Reply text: R, P, Q
